Cited source for all entries: ChEMBL document CHEMBL5338719

- TEST TARGET: UniProt:P81908
- PROCEDURE TEXT: Inhibition of equine BChE using BTChI as substrate
ENDPOINT LABEL: IC50

CCCOc1ccc2c(C)cc(=S)oc2c1OCCC    17 µM

====

- TEST TARGET: Cholinesterase (Equus caballus, UniProt P81908)
- Sequence (P81908 whole entry): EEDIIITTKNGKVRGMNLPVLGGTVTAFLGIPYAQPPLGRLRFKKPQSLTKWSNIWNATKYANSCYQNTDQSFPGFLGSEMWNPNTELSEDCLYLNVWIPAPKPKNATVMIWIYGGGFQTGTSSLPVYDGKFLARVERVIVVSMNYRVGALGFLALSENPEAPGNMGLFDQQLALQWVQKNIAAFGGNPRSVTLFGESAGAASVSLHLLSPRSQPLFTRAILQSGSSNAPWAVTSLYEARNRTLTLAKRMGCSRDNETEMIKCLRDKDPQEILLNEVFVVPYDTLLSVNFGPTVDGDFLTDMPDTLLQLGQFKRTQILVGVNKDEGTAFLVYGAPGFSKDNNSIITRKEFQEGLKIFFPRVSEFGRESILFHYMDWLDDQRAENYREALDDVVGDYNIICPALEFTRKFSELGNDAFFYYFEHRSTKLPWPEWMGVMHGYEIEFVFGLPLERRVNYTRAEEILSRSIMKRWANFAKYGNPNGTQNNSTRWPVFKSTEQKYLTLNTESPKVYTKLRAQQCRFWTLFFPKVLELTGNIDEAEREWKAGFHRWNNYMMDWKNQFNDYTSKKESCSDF
- PROCEDURE TEXT: Inhibition of equine BChE using butyrylthiocholine as substrate by Ellman's method
pIC50: −log10 of the molar value.
ENDPOINT LABEL: pIC50

CCc1cc(-c2nnc(Nc3ccccc3Cl)s2)c(O)cc1O    4.74

====

- TEST TARGET: Acetylcholinesterase (Homo sapiens, UniProt P22303)
- Sequence (P22303 whole entry): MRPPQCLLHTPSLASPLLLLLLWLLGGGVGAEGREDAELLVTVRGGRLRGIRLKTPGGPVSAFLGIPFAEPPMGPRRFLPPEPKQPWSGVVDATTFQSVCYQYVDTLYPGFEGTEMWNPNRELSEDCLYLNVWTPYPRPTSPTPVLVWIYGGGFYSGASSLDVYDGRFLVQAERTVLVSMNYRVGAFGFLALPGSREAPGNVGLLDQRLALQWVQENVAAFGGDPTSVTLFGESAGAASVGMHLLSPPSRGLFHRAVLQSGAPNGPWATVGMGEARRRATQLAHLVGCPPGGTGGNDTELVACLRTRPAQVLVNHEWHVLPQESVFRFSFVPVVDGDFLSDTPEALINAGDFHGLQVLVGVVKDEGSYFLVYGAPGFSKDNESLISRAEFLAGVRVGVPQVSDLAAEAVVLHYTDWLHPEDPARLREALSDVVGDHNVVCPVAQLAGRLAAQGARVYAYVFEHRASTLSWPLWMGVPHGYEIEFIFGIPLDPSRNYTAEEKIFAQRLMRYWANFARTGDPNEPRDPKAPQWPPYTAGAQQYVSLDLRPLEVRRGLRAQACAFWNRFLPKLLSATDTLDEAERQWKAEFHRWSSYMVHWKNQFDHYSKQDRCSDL
- PROCEDURE TEXT: Inhibition of human AChE by Ellmans method
pIC50: −log10 of the molar value.
ENDPOINT LABEL: pIC50

FC(F)(F)c1ccc(-c2nnc(CNC3CCN(Cc4ccccc4)C3)o2)cc1 (stereo unspecified)    7.19
